B1: CDC25A (parent)
chain: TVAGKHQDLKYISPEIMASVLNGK

Variants of: B1
Experiment: protein stability index of a GFP-peptide fusion (GPS, HEK-293T) (PSI 1-6); higher = more stable;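 note: lentivirally expressed fusions sorted by FACS into six bins by GFP to DsRed ratio, PSI derived from sequencing read proportions per bin multiplied by bin number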
Settings: c terminus: a fixed tail appended
Entries and their protein stability index
Number, no unit, nothing else.

Some variants with recorded protein stability index:
- QUERY_SEQUENCE: "TVAGKHQDLKYISPEDMASVLNGK [I16D]"
  TEST_VALUE: 4.25
- QUERY_SEQUENCE: "HVAGKHQDLKYISPEIMASVLNGK [T1H]"
  TEST_VALUE: 2.89
- QUERY_SEQUENCE: "TVAGKHQDFKYISPEIMASVLNGK [L9F]"
  TEST_VALUE: 3.1
- QUERY_SEQUENCE: "TVAGKHQDLKYISPEIMASFLNGK [V20F]"
  TEST_VALUE: 2.92
- QUERY_SEQUENCE: "TVIGKHQDLKYISPEIMASVLNGK [A3I]"
  TEST_VALUE: 2.61

Prompt: Identify measured protein stability index corresponding to TVAGLHQDLKYISPEIMASVLNGK [K5L]
Response: 3.06

Prompt: Identify measured protein stability index corresponding to TVAGKHQDHKYISPEIMASVLNGK [L9H]
Response: 3.65

Prompt: State its protein stability index for this variant: TVAGKHQDLKYISPEIMASVLNRK [G23R]
Response: 3.37

Prompt: Recall and state the measured protein stability index for TNAGKHQDLKYISPEIMASVLNGK [V2N] .
Response: 3.11

Prompt: Entry TVAAKHQDLKYISPEIMASVLNGK [G4A] needs its protein stability index filled in; supply it.
Response: 2.82

Prompt: Quick one: give measured protein stability index for TVAGKHQDEKYISPEIMASVLNGK [L9E]
Response: 3.94

Prompt: Indicate the recorded protein stability index value for this variant: TVAGKHQDLKYISPEIMASVLNHK [G23H]
Response: 2.9

Prompt: Given the variant TVAGKHQDLKYISPEIMASVKNGK [L21K] , write its reported protein stability index.
Response: 4.25

Prompt: Could you please provide reported protein stability index for TVAGKHQDLKYISPEIMASKLNGK [V20K] ? Thanks!
Response: 3.73

Prompt: Identify the reported protein stability index for the following entry. TVAGKHQDLKYISPEIDASVLNGK [M17D]
Response: 3.89

Prompt: Identify the reported protein stability index for the following entry. TVAGKHQYLKYISPEIMASVLNGK [D8Y]
Response: 1.9

Prompt: Tell me protein stability index reported for TVAGKHQDLKYISPIIMASVLNGK [E15I]
Response: 1.78

Prompt: Respond only with protein stability index recorded for TVAGKHQDLKYISPEIMASVLNWK [G23W]
Response: 2.33

Prompt: Identify measured protein stability index associated with TVAGKEQDLKYISPEIMASVLNGK [H6E]
Response: 3.66

Prompt: Determine from records and report protein stability index for TVANKHQDLKYISPEIMASVLNGK [G4N]
Response: 3.54

Prompt: Please look at this variant and report its protein stability index: TVAGKHQDLKYISPEIMASVLYGK [N22Y]
Response: 2.41

Prompt: Please report the measured protein stability index for TVAGKHQDMKYISPEIMASVLNGK [L9M]
Response: 3.29
